B1: TRIB1 (parent)
chain: EIGTSDQIVPEYQEDSDISSFFC

Variants of: B1
Assay: protein stability index of a GFP-peptide fusion (GPS, HEK-293T) (PSI 1-6); higher = more stable;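 note: lentivirally expressed fusions sorted by FACS into six bins by GFP to DsRed ratio, PSI derived from sequencing read proportions per bin multiplied by bin number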
Settings: c terminus: native
Decision: protein stability index compared against 3; not below it gives T, below it gives F.

1) C23Y = F
2) V9M = T
3) I2P = T
4) I2M = T
5) F21G = T
6) I2T = F
7) G3N = F
8) Q7C = T
9) F22H = T
10) T4H = F
11) I2A = F
12) F21C = T
13) D6Q = T
14) E14Q = T
15) I18G = T
16) D17T = T
17) S19G = F
18) V9C = T
19) D6K = T
20) E11V = F
21) S5R = F
22) D17H = T
23) D15V = F
24) F22W = F
25) Y12R = T
26) D6T = T
27) G3Q = F
28) E14P = F
29) T4N = F
30) S5G = T
31) G3C = F
32) C23D = F
33) I18W = F
34) P10H = T
35) V9N = T
36) I8A = T
37) S20Q = T
38) D6N = T
39) T4G = T
40) P10F = T
41) I2Y = F
42) Y12C = T
43) F22T = T
44) I18K = T
